Experiment: The drug is tested on Bacteroides cellulosilyticus strain: DSM14838 for biotransformation. The drug concentrations were measured before and after a 12-h incubation by liquid-chromatography-coupled mass spectrometry (LC–MS)
Conditions: 2 µM
Experimental readout: Bacterial Biotransformation

Illustrative cases are given below, each with its answer.
[
  {
    "Molecule": "C#C[C@]1(OC(C)=O)CC[C@H]2[C@@H]3CCC4=CC(=O)CC[C@@H]4[C@H]3CC[C@@]21C [NORETHINDRONE ACETATE]",
    "Experimental readout": "Bacterial Biotransformation",
    "Recorded value": "Compound metabolized"
  },
  {
    "Molecule": "CN(C)CCOC(C)(c1ccccc1)c1ccccn1.O=C(O)CCC(=O)O (stereo not given) [DOXYLAMINE SUCCINATE]",
    "Experimental readout": "Bacterial Biotransformation",
    "Recorded value": "Compound NOT metabolized"
  },
  {
    "Molecule": "N#Cc1ccc2[nH]cc(CCCCN3CCN(c4ccc5oc(C(N)=O)cc5c4)CC3)c2c1",
    "Experimental readout": "Bacterial Biotransformation",
    "Recorded value": "Compound metabolized"
  },
  {
    "Molecule": "CC(C)OC(=O)C(C)(C)Oc1ccc(C(=O)c2ccc(Cl)cc2)cc1 [FENOFIBRATE]",
    "Experimental readout": "Bacterial Biotransformation",
    "Recorded value": "Compound NOT metabolized"
  },
  {
    "Molecule": "COCCCC/C(=N\\OCCN)c1ccc(C(F)(F)F)cc1.O=C(O)/C=C\\C(=O)O [FLUVOXAMINE MALEATE]",
    "Experimental readout": "Bacterial Biotransformation",
    "Recorded value": "Compound NOT metabolized"
  },
  {
    "Molecule": "O=C1N=C([O-])NC1(c1ccccc1)c1ccccc1.[Na+] [PHENYTOIN SODIUM]",
    "Experimental readout": "Bacterial Biotransformation",
    "Recorded value": "Compound metabolized"
  },
  {
    "Molecule": "CCCCc1nc(Cl)c(CO)n1Cc1ccc(-c2ccccc2-c2nn[nH]n2)cc1",
    "Experimental readout": "Bacterial Biotransformation",
    "Recorded value": "Compound metabolized"
  },
  {
    "Molecule": "CNC(=C[N+](=O)[O-])NCCSCc1csc(CN(C)C)n1",
    "Experimental readout": "Bacterial Biotransformation",
    "Recorded value": "Compound metabolized"
  }
]

Give the measured Bacterial Biotransformation of CC(C)N(CCC(C(N)=O)(c1ccccc1)c1ccccn1)C(C)C.O=P(O)(O)O (stereo not given) [DISOPYRAMIDE PHOSPHATE] .
Compound NOT metabolized

Given CCOc1ccc2nc(S(N)(=O)=O)sc2c1 [ETHOXZOLAMIDE] , state its recorded Bacterial Biotransformation.
Compound metabolized

Record request: Bacterial Biotransformation value, item O=c1[nH]c2ccccc2n1CCCN1CCC(n2c(=O)[nH]c3cc(Cl)ccc32)CC1
Compound NOT metabolized

# input molecule: CC(=O)OCC(=O)[C@@]1(O)[C@@H](C)C[C@H]2[C@@H]3CCC4=CC(=O)C=C[C@]4(C)[C@@]3(F)[C@@H](O)C[C@@]21C [BETAMETHASONE ACETATE] ; wanted: its Bacterial Biotransformation
Compound NOT metabolized

Give its Bacterial Biotransformation value. Item: CN1CCN(C(=O)O[C@H]2c3nccnc3C(=O)N2c2ccc(Cl)cn2)CC1
Compound metabolized

Query: Bacterial Biotransformation; subject: CC(C)c1nc(N(C)S(C)(=O)=O)nc(-c2ccc(F)cc2)c1/C=C/[C@@H](O)C[C@@H](O)CC(=O)[O-].CC(C)c1nc(N(C)S(C)(=O)=O)nc(-c2ccc(F)cc2)c1/C=C/[C@@H](O)C[C@@H](O)CC(=O)[O-].[Ca+2]
Compound NOT metabolized

Given CCC1(c2ccc(N)cc2)CCC(=O)NC1=O (stereo not given) [AMINOGLUTETHIMIDE] , state its recorded Bacterial Biotransformation.
Compound NOT metabolized

Bench note: what Bacterial Biotransformation did CC(C)(C#N)c1cc(Cn2cncn2)cc(C(C)(C)C#N)c1 show?
Compound NOT metabolized
